Value source: patent US5439905A

Each entry below lists one item and its recorded pIC50 value.
target: CCK receptor (brain); construct: brain; experiment: CCK receptor-binding, brain (inhibition of 125I-CCK-8 binding)
Sequence (P32239 whole entry): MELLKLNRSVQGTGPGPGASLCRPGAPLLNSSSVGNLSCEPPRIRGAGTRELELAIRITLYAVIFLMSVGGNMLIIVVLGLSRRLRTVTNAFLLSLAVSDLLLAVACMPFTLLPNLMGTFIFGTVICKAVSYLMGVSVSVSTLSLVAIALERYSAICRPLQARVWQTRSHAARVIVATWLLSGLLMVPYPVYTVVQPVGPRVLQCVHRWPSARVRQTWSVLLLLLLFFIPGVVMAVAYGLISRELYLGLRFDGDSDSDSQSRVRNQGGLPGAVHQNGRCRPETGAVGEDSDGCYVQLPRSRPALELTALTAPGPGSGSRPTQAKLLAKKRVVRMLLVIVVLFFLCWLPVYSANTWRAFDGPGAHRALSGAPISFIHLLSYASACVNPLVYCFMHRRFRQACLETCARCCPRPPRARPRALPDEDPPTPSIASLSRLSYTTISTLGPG
Schema: pIC50 number; meaning minus log10 of the concentration expressed in molar units.

INSERT INTO results (compound, outcomemeasure, valuemeasured) VALUES
  ('CCc1cc2c(s1)N(C)C(=O)C(NC(=O)Nc1cccc(C)c1)N=C2c1ccccc1Cl (centres unmarked)', 'pIC50', 7.51);

Recorded pIC50 of CCc1cc2c(s1)-n1c(C)nnc1C(NC(=O)Nc1cccc(C)c1)N=C2c1ccccc1Cl (centres unmarked) , please.
8.00
